Attribution: patent US8816090B2

tgt: Human 5-HT4(d) (Homo sapiens)
Construct: expressed in transfected cells
protocolSummary: Agonist-induced cAMP elevation in human 5-HT4(d) transfected HEK293 cells
Assay type: cell-based
conditionDetails: HEK293; cAMP production normalized to the amount produced by 1,000 nM serotonin
Counter-ions that a name gives are not always drawn.
Reported Emax values for a set of molecules
The reply must contain the numeric value and, after it, the unit.

# example entries with known answers
O=C(O)C1(CCN2CCC(COc3noc4cccc(OCC(F)(F)F)c34)CC2)CCOCC1 [Example 5]    70%
O=C(O)C1(CN2CCC(COc3noc4cccc(O[C@H]5CC[C@@H](O)CC5)c34)CC2)CCCC1 [Example 45]    42%
O[C@@H]1CCC[C@@H]1Oc1cccc2onc(OCC3CCN(CC4(O)CCOCC4)CC3)c12 (relative stereo) [Example 36]    52%
CO[C@@H]1CCC[C@@H]1Oc1cccc2onc(OCC3CCN(CC4(O)CCOCC4)CC3)c12 (relative stereo) [Example 37, oxalate salt]    50%

## Task For CC(C)COc1cccc2onc(OCC3CCN(CC4(C(=O)O)CCOCC4)CC3)c12 [Example 10] , what is its reported Emax?
## Result 45%

## Task For O=C(O)[C@H]1CC[C@H](CN2CCC(COc3noc4cccc(OCC(F)(F)F)c34)CC2)CC1 [Example 4] , what is its reported Emax?
## Result 77%

## Task For O=C(O)C1(CN2CCC(COc3noc4cccc(O[C@H]5CC[C@@H](O)CC5)c34)CC2)CCOCC1 [Example 43] , what is its reported Emax?
## Result 49%

## Task For O=C(O)C1(CN2CCC(COc3noc4cccc(OC5CCOCC5)c34)CC2)CCCC1 [Example 28] , what is its reported Emax?
## Result 78%

## Task For OC1(COc2cccc3onc(OCC4CCN(CC5(O)CCOCC5)CC4)c23)CCCC1 [Example 31] , what is its reported Emax?
## Result 31%

## Task For O=C(O)C1(CN2CCC(COc3noc4cccc(O[C@H]5CCC[C@@H]5O)c34)CC2)CCC1 (relative stereo) [Example 34] , what is its reported Emax?
## Result 46%

## Task For O=C(O)C1(CN2CCC(COc3noc4cccc(OCC5CCC5)c34)CC2)CCOCC1 [Example 18] , what is its reported Emax?
## Result 52%

----------
reportedProperty: melting point (°C)
API: value field is a number in °C; no unit string.

## Task For `CC(C)COc1cccc2onc(OCC3CCN(CC4(C(=O)O)CCOCC4)CC3)c12` , what is its reported melting point?
## Result 153.4

## Task For `O=C(O)[C@H]1CC[C@H](CN2CCC(COc3noc4cccc(OCC(F)(F)F)c34)CC2)CC1` , what is its reported melting point?
## Result 158

## Task For `O=C(O)C(F)(F)CN1CCC(COc2noc3cccc(OCC(F)(F)F)c23)CC1` , what is its reported melting point?
## Result 227.1

## Task For `O=C(O)[C@H]1CC[C@H](CN2CCC(COc3noc4cccc(O[C@H]5CC[C@@H](O)CC5)c34)CC2)CC1` , what is its reported melting point?
## Result 182.7

## Task For `O=C(O)C1(CCN2CCC(COc3noc4cccc(OCC5CCCC5)c34)CC2)CCOCC1` , what is its reported melting point?
## Result 212.5

## Task For `O=C(O)C1(CN2CCC(COc3noc4cccc(O[C@H]5CC[C@@H](O)CC5)c34)CC2)CCCC1` , what is its reported melting point?
## Result 189.6

## Task For `O=C(O)C1(CN2CCC(COc3noc4cccc(OCC5CCC5)c34)CC2)CCOCC1` , what is its reported melting point?
## Result 175.5

----------
Reported EC50 values for a set of compounds
tgt: Human 5-HT4(d) (Homo sapiens, UniProt Q13639)
Sequence (Q13639 1-360 isoform Q13639-3): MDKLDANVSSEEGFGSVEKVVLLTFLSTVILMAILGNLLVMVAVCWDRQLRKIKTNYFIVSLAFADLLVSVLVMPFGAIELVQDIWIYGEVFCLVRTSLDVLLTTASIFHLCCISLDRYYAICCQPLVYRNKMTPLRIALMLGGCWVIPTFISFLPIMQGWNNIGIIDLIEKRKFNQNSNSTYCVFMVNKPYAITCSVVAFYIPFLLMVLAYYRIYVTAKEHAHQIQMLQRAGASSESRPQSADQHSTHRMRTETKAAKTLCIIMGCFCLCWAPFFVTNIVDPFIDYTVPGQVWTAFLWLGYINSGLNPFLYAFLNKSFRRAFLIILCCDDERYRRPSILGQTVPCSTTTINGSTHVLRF
protocolSummary: Agonist-induced cAMP elevation in human 5-HT4(d) transfected HEK293 cells
conditionDetails: cAMP elevation (HTRF), human 5-HT4(d) transfected HEK293 cells
API: value field is a number in nM; no unit string.

## Task For `O=C(O)C1(CCN2CCC(COc3noc4cccc(OCC5CCC5)c34)CC2)CCOCC1` , what is its reported EC50?
## Result 5.3

## Task For `CC(C)COc1cccc2onc(NCC3CCN(CC4(C(=O)O)CCOCC4)CC3)c12` , what is its reported EC50?
## Result 1.6

## Task For `O=C(O)[C@H]1CC[C@H](CN2CCC(COc3noc4cccc(OCC(F)(F)F)c34)CC2)CC1` , what is its reported EC50?
## Result 1.2

## Task For `O=C(O)C1(CN2CCC(COc3noc4cccc(OCC5CCC5)c34)CC2)CCC1` , what is its reported EC50?
## Result 0.24

## Task For `O=C(O)C1(CN2CCC(COc3noc4cccc(OCC5(CO)CCC5)c34)CC2)CCC1` , what is its reported EC50?
## Result 98

## Task For CO[C@H]1CCC[C@@H]1Oc1cccc2onc(OCC3CCN(CC4(O)CCOCC4)CC3)c12 (relative stereo) , what is its reported EC50?
## Result 1.4

## Task For O=C(O)C1(CN2CCC(COc3noc4cccc(O[C@H]5CCC[C@@H]5O)c34)CC2)CCCC1 (relative stereo) , what is its reported EC50?
## Result 3.3

## Task For `O=C(O)C1(CN2CCC(COc3noc4cccc(O[C@H]5CC[C@@H](O)CC5)c34)CC2)CCCC1` , what is its reported EC50?
## Result 3.8

## Task For `O=C(O)C1(CN2CCC(COc3noc4cccc(O[C@H]5CC[C@@H](CO)CC5)c34)CC2)CCCC1` , what is its reported EC50?
## Result 4.3

## Task For `O=C(O)C1(CN2CCC(COc3noc4cccc(OC5CCOCC5)c34)CC2)CCOCC1` , what is its reported EC50?
## Result 11

## Task For O=C1CCCC1Oc1cccc2onc(OCC3CCN(CC4(O)CCOCC4)CC3)c12 (stereo not drawn) , what is its reported EC50?
## Result 0.84

## Task For O[C@H]1CC[C@H](Oc2cccc3onc(OCC4CCN(CC5(O)CCOCC5)CC4)c23)C1 (relative stereo) , what is its reported EC50?
## Result 1.3

----------
tgt: Human 5-HT4(d) (Homo sapiens, UniProt Q13639)
protocolSummary: Agonist-induced cAMP elevation in human 5-HT4(d) transfected HEK293 cells
conditionDetails: cAMP elevation (HTRF), human 5-HT4(d) transfected HEK293 cells
reportedProperty: pEC50
In plain terms, pEC50 is the concentration in mol/L turned into minus its base-10 logarithm.

O=C(O)C1(CN2CCC(COc3noc4cccc(O[C@H]5CC[C@@H](O)CC5)c34)CC2)CCOCC1    8.48
O=C(O)C1(CN2CCC(CCOc3noc4cccc(OCC(F)(F)F)c34)CC2)CCOCC1    7.32
O=C(O)C(F)(F)CN1CCC(COc2noc3cccc(OCC(F)(F)F)c23)CC1    7.70
O=C(O)C1(CN2CCC(COc3noc4cccc(OCC5(CO)CCC5)c34)CC2)CCOCC1    7.19
CC(C)(CN1CCC(COc2noc3cccc(OCC(F)(F)F)c23)CC1)C(=O)O    9.16

## Task For `CC(C)COc1cccc2onc(OCC3CCN(CCC4(C(=O)O)CCOCC4)CC3)c12` , what is its reported pEC50?
## Result 8.57

## Task For O[C@H]1CCCC[C@H]1Oc1cccc2onc(OCC3CCN(CC4(O)CCOCC4)CC3)c12 (relative stereo) , what is its reported pEC50?
## Result 7.80

## Task For `O=C(O)C1(CN2CCC(COc3noc4cccc(O[C@H]5CC[C@@H](CO)CC5)c34)CC2)CCOCC1` , what is its reported pEC50?
## Result 8.26

----------
reportedProperty: melting point (°C)
API: value field is a number in °C; no unit string.

# example entries with known answers
CC(C)COc1cccc2onc(NCC3CCN(CC4(C(=O)O)CCOCC4)CC3)c12    178.2
O=C(O)C1(CN2CCC(COc3noc4cccc(OC5CCOCC5)c34)CC2)CCCCC1    157.1
O=C(O)C1(CCN2CCC(COc3noc4cccc(OCC(F)(F)F)c34)CC2)CCOCC1    220.5
CC(C)COc1cccc2onc(OCC3CCN(CC(C)(C)C(=O)O)CC3)c12    123.7

## Task For O[C@H]1CCCC[C@H]1Oc1cccc2onc(OCC3CCN(CC4(O)CCOCC4)CC3)c12 (relative stereo) , what is its reported melting point?
## Result 125.2

----------
Reported melting point values for a set of compounds
API: value field is a number in °C; no unit string.

# example entries with known answers
O=C(O)C1(CN2CCC(COc3noc4cccc(OCC5CCC5)c34)CC2)CCC1 [Example 20]    176.9
CC(C)COc1cccc2onc(OCC3CCN(CC4(C(=O)O)CCCC4)CC3)c12 [Example 9]    156.3
O=C(O)C1(CN2CCC(CCOc3noc4cccc(OCC(F)(F)F)c34)CC2)CCOCC1 [Example 7]    176.6

## Task For O=C1CCCC1Oc1cccc2onc(OCC3CCN(CC4(O)CCOCC4)CC3)c12 (centres unmarked) [Example 38] , what is its reported melting point?
## Result 133.1

## Task For O=C(O)C1(CN2CCC(CNc3noc4cccc(OCC(F)(F)F)c34)CC2)CCOCC1 [Example 53] , what is its reported melting point?
## Result 171.9

## Task For O=C(O)C1(CN2CCC(COc3noc4cccc(OCC5(CO)CCC5)c34)CC2)CCC1 [Example 50] , what is its reported melting point?
## Result 194.2

## Task For O=C(O)C1(CCN2CCC(COc3noc4cccc(OCC5CCC5)c34)CC2)CCOCC1 [Example 21] , what is its reported melting point?
## Result 223.2

## Task For O=C(O)C1(CN2CCC(COc3noc4cccc(OC5CCOCC5)c34)CC2)CCCC1 [Example 28] , what is its reported melting point?
## Result 172.9
